Tested on: HCV genotype 7a (QC69) chimeric HCVcc
Experiment: Pan-genotypic activity test using chimeric HCVcc, genotype 7a
Format: cell-based
Details: Hepatitis C virus, read-out: EC50 gt7a
pEC50: −log10 of the molar value.
assay metric: pEC50

In the examples that follow, each entry is paired with its recorded pEC50.
compound	recorded result
O=C(NCCCN1CCC(N2CCCCC2)CC1)c1ccc(-c2ccc(C(F)(F)F)cc2)cc1 [No. 1019]	< 5.00
CC(C)OC(=O)c1c(NC(=O)NCc2c(C(F)(F)F)sc3c2CCNC3)sc2c1CCCC2 [No. 167]	> 7.00
CCOC(=O)c1c(NC(=O)NCc2c(C(F)(F)F)sc3c2CCN(CCN(C)C)C3)sc2c1CCCC2 [No. 316]	> 7.00

Parameters: items (list). Returns: pEC50 for each item.
1. CCOC(=O)c1c(NC(=O)NCc2c(-n3cccc3)sc3c2CCN(S(C)(=O)=O)C3)sc2c1CCCC2 [No. 21]
2. CCN1CCc2c(sc(-n3cccc3)c2CNC(=O)Nc2sc3c(c2C(=O)OC(C)(C)C)CCCC3)C1 [No. 14]
3. CCOC(=O)c1c(NC(=O)NCc2c(-n3cccc3)sc3c2CCN(CC(C)C)C3)sc2c1CCCC2 [No. 27]
4. CC(C)(C)OC(=O)c1c(NC(=O)NCc2c(C(F)(F)F)sc3c2CCNC3)sc2c1CCCC2 [No. 121]
5. O=C(NCCCN1CCC(N2CCCCC2)CC1)c1ccc(Oc2ccccc2)cc1 [No. 1013]
6. CCOC(=O)c1c(NC(=O)NCc2c(-n3cccc3)sc3c2CCNC3)sc2c1CCCC2 [No. 19]

["> 7.00", "> 7.00", "6.00 to 7.00", "> 7.00", "< 5.00", "6.00 to 7.00"]
